# experimental_target: T1, recombinant human midkine (huMK) (human, UniProt P21741 21-143)
# T1 construct: also called human MK; Human MK
# T1 sequence (looked up): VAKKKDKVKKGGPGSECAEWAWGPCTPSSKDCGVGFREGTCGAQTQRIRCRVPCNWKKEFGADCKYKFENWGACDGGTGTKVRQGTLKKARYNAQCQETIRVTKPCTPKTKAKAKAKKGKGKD
# assay_summary: ELISA, plate coated with huMK
# Method: The binding specificity and affinity of the humanised anti-MK antibodies to recombinant human MK (huMK) and murine MK (muMK) was assessed by ELISA. […] The reaction was stopped with 3 M HCl, absorbance read at 490 nm on a Dynex Technologies MRX TC II plate reader and the binding curves plotted. […]
measurement_kind: EC50 (nM)
The reply should be a number in nM, with the unit left off.

binder	measurement_kind	observed_value
IP14 Hv0 Lv7 (antibody, V domains shown) VH: QVQLQQPGAELVRPGHSVKLSCKASGQSFSSYWMNWVRQRPGQGLEWIGMIHPSDSETILNQKFKDKATLTVDISSNTAYMQLSSPTSEDSAVYFCSSWSAKRGDFWGQGTTLTVSS VL: DIVLTQSPATLSLSPGERANLSCRASESISNNLHWYQQKPHQAPRLLIYYASQSISGVPARFSGSGSGTDFNLTISSVEPEDFAVYYCQQSNSWPLTFGQGTKVEIKR	EC50	0.092
IP14-H6L3 (antibody, V domains shown, also called hIP14-H6L3; Hv6 Lv3) VH: QVQLVQSGGGLVKPGHSLRLSCAASGQSFSSYWMNWVRQAPGKGLEWIGMIHPSDSETILNQKFKDKATLSVDIAKNSAYLQMNSLRAEDTAVYYCSSWSAKRGDFWGQGTLVTVSS VL: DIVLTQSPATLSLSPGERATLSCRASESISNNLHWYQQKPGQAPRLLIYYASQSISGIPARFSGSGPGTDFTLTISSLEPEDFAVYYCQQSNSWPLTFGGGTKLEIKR	EC50	0.07
IP14 Hv0 Lv6 (antibody, V domains shown) VH: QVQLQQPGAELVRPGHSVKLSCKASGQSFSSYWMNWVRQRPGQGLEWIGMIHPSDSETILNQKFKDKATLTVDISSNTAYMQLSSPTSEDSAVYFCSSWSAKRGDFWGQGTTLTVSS VL: EIVLTQSPSTLSASVGDRVNITCRASESISNNLHWYQQKPHKAPKLLIYYASQSISGVPSRFSGSGSGTEFNLTISSVQPDDFATYYCQQSNSWPLTFGQGTKVEIKR	EC50	0.132

Problem: Dear colleague, I am looking for the recorded EC50 of the following binder: IP14-H6L7 (antibody, V domains shown, also called Hv6 Lv7) VH: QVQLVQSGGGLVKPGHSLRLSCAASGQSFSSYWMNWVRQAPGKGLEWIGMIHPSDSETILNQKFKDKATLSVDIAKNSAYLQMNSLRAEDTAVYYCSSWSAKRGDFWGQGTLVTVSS VL: DIVLTQSPATLSLSPGERANLSCRASESISNNLHWYQQKPHQAPRLLIYYASQSISGVPARFSGSGSGTDFNLTISSVEPEDFAVYYCQQSNSWPLTFGQGTKVEIKR
Result: 0.068

Problem: IP14-H1L4 (antibody, V domains shown, also called Hv1 Lv4) VH: QVQLVQSGAEVKKPGHSVKVSCKASGQSFSSYWMNWVRQAPGQGLEWIGMIHPSDSETILNQKFKDKATLTVDISTSTAYMELSSPRSEDTAVYYCSSWSAKRGDFWGQGTLVTVSS VL: EIVLTQSPDFQSVTPKEKVNITCRASESISNNLHWYQQKPHQSPKLLIYYASQSISGVPSRFSGSGSGTDFNLTINSVEAEDAATYYCQQSNSWPLTFGGGTKLEIKR ?
Result: 0.05

Numbers sourced from patent US20170240628A1.
